assay: Solubility measurements by gravimetric method in solvents at 23° C. and 50° C.; type: physicochemical; details: IPA, 50 °C, organic solvent or mixture, thermodynamic from solid, IPA, 50° C.; read-out: Solubility
parameter measured: solubility at 2 days (µg/mL)
Dear colleague, please return just the value in µg/mL, with no unit written.

# input Please report the measured solubility at 2 days for O=C(c1ccc(NS(=O)(=O)c2cccc3cccnc23)cc1)N1CCN(CC2CC2)CC1 [Form A, hemisulfate sesquihydrate]
# output 2000

----------
test: Pharmacokinetic evaluation after single PO suspension dose; format: in vivo, Sprague-Dawley rat; conditions: PO 200 mg/kg (free base equivalent), suspension in 0.5% methyl-cellulose, male Sprague-Dawley rats, n=6, plasma; 200 mg/kg
parameter measured: AUC 0-last (µg·h/mL)
Dear colleague, please return just the value in µg·h/mL, with no unit written.

# input Please report the measured AUC 0-last for O=C(c1ccc(NS(=O)(=O)c2cccc3cccnc23)cc1)N1CCN(CC2CC2)CC1 [Crystalline free-base of Compound 1]
# output 125
